# Lookup of reported pKd keyed by entry
Assay System: CK2α (Homo sapiens, UniProt P68400, K74A/K75A/K76A/R21S)
Construct: CK2α_KA (residues 2 -329) contained four; His6 (N, cleaved yes)
Sequence (P68400 2-329 R21S/K74A/K75A/K76A): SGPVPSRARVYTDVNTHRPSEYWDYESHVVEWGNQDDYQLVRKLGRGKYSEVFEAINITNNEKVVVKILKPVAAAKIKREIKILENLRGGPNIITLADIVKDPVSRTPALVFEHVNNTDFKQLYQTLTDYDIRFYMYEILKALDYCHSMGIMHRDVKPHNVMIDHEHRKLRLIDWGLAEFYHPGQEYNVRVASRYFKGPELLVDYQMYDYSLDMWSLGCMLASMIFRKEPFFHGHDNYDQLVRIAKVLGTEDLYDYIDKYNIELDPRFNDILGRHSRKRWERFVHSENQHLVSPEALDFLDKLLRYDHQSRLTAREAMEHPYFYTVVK
Assay: Isothermal titration calorimetry, direct binding to CK2α
Assay Conditions: ITC, 25°C, CK2α_KA, Tris 200 mM, NaCl 300 mM, 10% DMSO, single site binding model
Protocol: lysed using a high-pressure homogeniser. The soluble supernatant was applied on a […] mM NaCl, 1mM DTT, 1mM EDTA, pH 8.5). 100µL of the precision protease was loaded onto the […] Pure protein was concentrated to 15 mg/mL and flash frozen in liquid N2. […] 1.4.3. Isothermal Calorimetry Titration 1.4.3.1. Direct binding assay DMSO) and concentrated to 20-50 μM. Compounds in 100× stock solutions were diluted into the […] Control titrations were performed, and the […]
pKd: −log10 of the molar value.
Parameter: pKd

molecule="CC[C@H](C)[C@@H]1NC(=O)[C@H](CCCCN)NC(=O)[C@H](Cc2ccccc2)NC(=O)CNC(=O)[C@H](Cc2ccc(O)cc2)NC(=O)[C@H](CC(C)C)NC(=O)[C@H](CCCNC(=N)N)NC(=O)[C@@H](NC(=O)CNC(C)=O)Cn2cc(nn2)-c2cc(C(=O)O)cc(c2)-c2cn(nn2)C[C@@H](C(=O)NCC(=O)NCC(N)=O)NC(=O)[C@H](Cc2c[nH]cn2)NC1=O [P1-C4]" assay_system="CK2α (Homo sapiens, UniProt P68400, K74A/K75A/K76A/R21S)" parameter=pKd result_value=6.34
molecule="CC(=O)NCC(=O)N[C@H]1Cn2cc(nn2)-c2cc(C(=O)O)cc(c2)-c2cn(nn2)C[C@@H](C(=O)NCC(=O)NCC(N)=O)NC(=O)[C@H](Cc2c[nH]cn2)NC(=O)[C@H](Cc2c[nH]c3ccccc23)NC(=O)[C@H](CCCCN)NC(=O)[C@H](Cc2ccccc2)NC(=O)CNC(=O)[C@H](Cc2ccc(O)cc2)NC(=O)[C@H](CC(C)C)NC(=O)[C@H](CCCNC(=N)N)NC1=O [P2-C4]" assay_system="CK2α (Homo sapiens, UniProt P68400, K74A/K75A/K76A/R21S)" parameter=pKd result_value=6.82

Cited source: paper PMC6530537
